src = paper PMC8704748

Readings of IC50 for the listed compounds
biological target: LmPTR1 (Leishmania major, UniProt Q01782); assay: LmPTR1 inhibition, Cytochrome C coupled spectrophotometric assay; format: biochemical; conditions: recombinant protein; standard errors within ± 10%
Sequence (Q01782 whole entry): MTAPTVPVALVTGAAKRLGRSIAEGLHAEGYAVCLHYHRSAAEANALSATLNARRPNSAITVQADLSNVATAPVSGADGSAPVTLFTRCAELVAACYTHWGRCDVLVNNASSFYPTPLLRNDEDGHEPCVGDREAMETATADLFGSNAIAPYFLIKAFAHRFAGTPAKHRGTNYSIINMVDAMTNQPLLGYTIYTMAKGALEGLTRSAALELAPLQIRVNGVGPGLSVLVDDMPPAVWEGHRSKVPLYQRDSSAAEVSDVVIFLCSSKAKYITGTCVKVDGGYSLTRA

Per the reported LmPTR1 (Leishmania major, UniProt Q01782) data, "Cc1nc2c(-c3ncn[nH]3)cc(NC(=O)Cc3ccccc3)cn2c1C" has IC50 of > 40 µM

Per the reported LmPTR1 (Leishmania major, UniProt Q01782) data, "CN(Cc1cc2ccccc2s1)c1ncc2c(N)nc(N)nc2n1" has IC50 of 5.9 µM

Per the reported LmPTR1 (Leishmania major, UniProt Q01782) data, "CCCc1nc2nc(N)nc(N)c2cc1CC" has IC50 of ~6 µM

Per the reported LmPTR1 (Leishmania major, UniProt Q01782) data, COc1ccc(C(C)N(C)c2ncc3c(N)nc(N)nc3n2)cc1F (centres unmarked) has IC50 of 6 µM

Per the reported LmPTR1 (Leishmania major, UniProt Q01782) data, "O=C1NCCn2ccc(Nc3nc(N[C@H]4CC[C@H](O)CC4)ncc3Cl)c21" has IC50 of 6.7 µM
